systemUnderTest: UniProt P37268
Sequence (P37268 whole entry): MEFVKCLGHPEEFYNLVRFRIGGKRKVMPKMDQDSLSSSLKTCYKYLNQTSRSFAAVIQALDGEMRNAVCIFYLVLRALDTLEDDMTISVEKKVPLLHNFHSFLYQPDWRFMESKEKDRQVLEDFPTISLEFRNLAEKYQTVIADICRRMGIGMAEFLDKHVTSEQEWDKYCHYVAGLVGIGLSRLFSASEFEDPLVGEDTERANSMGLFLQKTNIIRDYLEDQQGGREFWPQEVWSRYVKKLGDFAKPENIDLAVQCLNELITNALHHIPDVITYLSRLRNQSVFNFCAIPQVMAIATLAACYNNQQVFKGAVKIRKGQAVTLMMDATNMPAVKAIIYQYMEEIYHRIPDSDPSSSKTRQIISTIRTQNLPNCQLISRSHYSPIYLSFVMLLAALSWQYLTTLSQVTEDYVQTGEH
propertyMeasured: IC50 (µM)
Express it in µM; write the number only.

Inquiry: Using the record for CC(C)=CCC/C(C)=C/CNCCNC1C2CC3CC(C2)CC1C3 (stereo not drawn) , report its IC50.
Reply text: 100

Inquiry: Using the record for CC(C)=CCC/C(C)=C/CNCCOC1C2CC3CC(C2)CC1C3 (stereo not drawn) , report its IC50.
Reply text: 100

Inquiry: Using the record for CC(C)=CCC/C(C)=C/COCCNC1C2CC3CC(C2)CC1C3 (stereo not drawn) , report its IC50.
Reply text: 100

* * *

Tested on: Mycolicibacterium smegmatis
testName: Disruption of membrane potential in Mycobacterium smegmatis by DisC3(5) probe-based fluorescence spectrophotometry
Assay type: functional, organism-based
propertyMeasured: pIC50
In simple prose, pIC50 is minus the logarithm base ten of a concentration in moles per litre.

Inquiry: Using the record for CC(C)=CCC/C(C)=C/C[N+](C)(C)CCOC1C2CC3CC(C2)CC1C3 (stereo unspecified) , report its pIC50.
Reply text: 4.29

Inquiry: Using the record for CC(C)=CCC/C(C)=C/COCC(=O)NC1C2CC3CC(C2)CC1C3 (stereo unspecified) , report its pIC50.
Reply text: 3.82

Inquiry: Using the record for CC(C)=CCC/C(C)=C/CNCCOc1cccc2ccccc12 , report its pIC50.
Reply text: 3.89

Inquiry: Using the record for CC(C)=CCC/C(C)=C/CNCCOC1C2CC3CC(C2)CC1C3 (stereo unspecified) , report its pIC50.
Reply text: 4.51

Inquiry: Using the record for CC(C)=CCC/C(C)=C/CNC(=O)COC1C2CC3CC(C2)CC1C3 (stereo unspecified) , report its pIC50.
Reply text: 3.82

Inquiry: Using the record for CC(C)=CCC/C(C)=C/COCCOC1C2CC3CC(C2)CC1C3 (stereo unspecified) , report its pIC50.
Reply text: 3.82

* * *

testName: Therapeutic index, ratio of IC50 for human MCF7 cells to IC50 for Plasmodium falciparum 3D7
Format: cell-based
runParameters: MCF7 cells versus Plasmodium falciparum 3D7, read-out: Ratio IC50
I'd be grateful if you could share measured selectivity ratio for these entries.

Inquiry: Using the record for CC(C)=CCC/C(C)=C/CNCCOC1C2CC3CC(C2)CC1C3 (configuration not stated) , report its selectivity ratio.
Reply text: 40

Inquiry: Using the record for CC(C)=CCC/C(C)=C/CNCCNC1C2CC3CC(C2)CC1C3 (configuration not stated) , report its selectivity ratio.
Reply text: 18

* * *

systemUnderTest: UniProt O95749
Sequence (O95749 whole entry): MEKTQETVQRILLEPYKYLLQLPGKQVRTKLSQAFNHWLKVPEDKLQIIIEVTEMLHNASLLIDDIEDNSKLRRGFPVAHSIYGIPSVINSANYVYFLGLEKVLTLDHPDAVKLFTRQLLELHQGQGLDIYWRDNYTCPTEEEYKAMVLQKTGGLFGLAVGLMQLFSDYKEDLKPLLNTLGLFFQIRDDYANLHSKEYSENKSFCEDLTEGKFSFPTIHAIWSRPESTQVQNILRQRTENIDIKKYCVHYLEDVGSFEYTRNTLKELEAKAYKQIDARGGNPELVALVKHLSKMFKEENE
propertyMeasured: IC50 (µM)
Express it in µM; write the number only.

Inquiry: Using the record for CC(C)=CCC/C(C)=C/CNCCNC1C2CC3CC(C2)CC1C3 (stereo unspecified) [SQ109] , report its IC50.
Reply text: 4.5

* * *

The reader will find pIC50 measurements below, all made with 4,4'-diapophytoene synthase (Staphylococcus aureus, UniProt A9JQL9).
Sequence (A9JQL9 whole entry): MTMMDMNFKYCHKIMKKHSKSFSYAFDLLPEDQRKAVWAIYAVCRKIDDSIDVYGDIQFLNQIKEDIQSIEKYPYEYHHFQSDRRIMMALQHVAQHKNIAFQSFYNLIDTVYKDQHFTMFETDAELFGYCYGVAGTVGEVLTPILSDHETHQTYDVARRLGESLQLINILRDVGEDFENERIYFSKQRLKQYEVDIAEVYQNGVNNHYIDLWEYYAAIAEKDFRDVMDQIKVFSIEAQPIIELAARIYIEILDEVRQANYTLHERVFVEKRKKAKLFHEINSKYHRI
In simple prose, pIC50 is minus the logarithm base ten of a concentration in moles per litre.

Inquiry: Which measured pIC50 belongs to CC(C)=CCC/C(C)=C/COCCNC1C2CC3CC(C2)CC1C3 (stereo not drawn) , tested on 4,4'-diapophytoene synthase (Staphylococcus aureus, UniProt A9JQL9)?
Reply text: 4.00

Inquiry: Which measured pIC50 belongs to CC(C)=CCC/C(C)=C/CNCCOC1C2CC3CC(C2)CC1C3 (stereo not drawn) , tested on 4,4'-diapophytoene synthase (Staphylococcus aureus, UniProt A9JQL9)?
Reply text: 4.00

Inquiry: Which measured pIC50 belongs to CC(C)=CCC/C(C)=C/CNCCNC1C2CC3CC(C2)CC1C3 (stereo not drawn) , tested on 4,4'-diapophytoene synthase (Staphylococcus aureus, UniProt A9JQL9)?
Reply text: 4.00

* * *

Tested on: Mycolicibacterium smegmatis
testName: Disruption of membrane potential in Mycobacterium smegmatis by DisC3(5) probe-based fluorescence spectrophotometry
Format: functional, organism-based
I'd be grateful if you could share measured IC50 for these entries.
In your response, put the unit directly after the numeric value.

Inquiry: Using the record for CC(C)=CCC/C(C)=C/CNCCNC1C2CC3CC(C2)CC1C3 (stereo not given) , report its IC50.
Reply text: 55 µM

Inquiry: Using the record for CC(C)=CCC/C(C)=C/CNCCO[C@@H]1C[C@@H]2CC[C@@]1(C)C2(C)C , report its IC50.
Reply text: 44 µM

Inquiry: Using the record for CC(C)=CCC/C(C)=C/CNCCCOC1C2CC3CC(C2)CC1C3 (stereo not given) , report its IC50.
Reply text: 50 µM

Inquiry: Using the record for CC(C)=CCC/C(C)=C/COCCNC1C2CC3CC(C2)CC1C3 (stereo not given) , report its IC50.
Reply text: 78 µM

Inquiry: Using the record for CC(C)=CCC/C(C)=C/CNCCOC(C)(C)C , report its IC50.
Reply text: 150 µM

* * *

System: Saccharomyces cerevisiae
testName: Antimicrobial activity against Saccharomyces cerevisiae ATCC 208352 after 48 hrs by microbroth dilution method
Format: functional, organism-based
runParameters: ATCC 208352, 48 h
Each record is given condition met if its reported IC50 is strictly below 10 µM. Records at or above 10 µM are given condition not met.

Inquiry: A record lists CC(C)=CCC/C(C)=C/CNCCOc1cccc2ccccc12 . Is its IC50 below 10 µM?
Reply text: condition not met

Inquiry: A record lists CC(C)=CCC/C(C)=C/CNCCOC1C2CC3CC(C2)CC1C3 (stereo not drawn) . Is its IC50 below 10 µM?
Reply text: condition met

Inquiry: A record lists CC(C)=CCC/C(C)=C/CNCCO[C@@H]1C[C@@H]2CC[C@@]1(C)C2(C)C . Is its IC50 below 10 µM?
Reply text: condition met

Inquiry: A record lists CC(C)=CCC/C(C)=C/CNCCOc1ccccc1 . Is its IC50 below 10 µM?
Reply text: condition not met

Inquiry: A record lists CC(C)=CCC/C(C)=C/C[N+](C)(C)CCOC1C2CC3CC(C2)CC1C3 (stereo not drawn) . Is its IC50 below 10 µM?
Reply text: condition not met

Inquiry: A record lists CC(C)=CCC/C(C)=C/CNCCCOC1C2CC3CC(C2)CC1C3 (stereo not drawn) . Is its IC50 below 10 µM?
Reply text: condition met

Inquiry: A record lists CC(C)=CCC/C(C)=C/CNCCOC(C)(C)C . Is its IC50 below 10 µM?
Reply text: condition not met

Inquiry: A record lists CC(C)=CCC/C(C)=C/CNCCNC1C2CC3CC(C2)CC1C3 (stereo not drawn) . Is its IC50 below 10 µM?
Reply text: condition met

* * *

System: MCF7
testName: Cytotoxicity against human MCF7 cells assessed as growth inhibition by MTT assay
Assay type: cell-based
I'd be grateful if you could share measured IC50 for these entries.
Express it in µM; write the number only.

Inquiry: Using the record for CC(C)=CCC/C(C)=C/CNCCNC1C2CC3CC(C2)CC1C3 (configuration not stated) , report its IC50.
Reply text: 18

Inquiry: Using the record for CC(C)=CCC/C(C)=C/CNCCOC1C2CC3CC(C2)CC1C3 (configuration not stated) , report its IC50.
Reply text: 30

Inquiry: Using the record for CC(C)=CCC/C(C)=C/COCCOC1C2CC3CC(C2)CC1C3 (configuration not stated) , report its IC50.
Reply text: 220

Inquiry: Using the record for CC(C)=CCC/C(C)=C/CNCCO[C@@H]1C[C@@H]2CC[C@@]1(C)C2(C)C , report its IC50.
Reply text: 3.9

Inquiry: Using the record for CC(C)=CCC/C(C)=C/CNCCOc1cccc2ccccc12 , report its IC50.
Reply text: 22

Inquiry: Using the record for CC(C)=CCC/C(C)=C/CNCCOC(C)(C)C , report its IC50.
Reply text: 178

Inquiry: Using the record for CC(C)=CCC/C(C)=C/C[N+](C)(C)CCOC1C2CC3CC(C2)CC1C3 (configuration not stated) , report its IC50.
Reply text: 6.5

Inquiry: Using the record for CC(C)=CCC/C(C)=C/CNCCOc1ccccc1 , report its IC50.
Reply text: 23

Inquiry: Using the record for CC(C)=CCC/C(C)=C/COCCNC1C2CC3CC(C2)CC1C3 (configuration not stated) , report its IC50.
Reply text: 338

Inquiry: Using the record for CC(C)=CCC/C(C)=C/CNCCCOC1C2CC3CC(C2)CC1C3 (configuration not stated) , report its IC50.
Reply text: 9.8

Inquiry: Using the record for CC(C)=CCC/C(C)=C/CNC(=O)COC1C2CC3CC(C2)CC1C3 (configuration not stated) , report its IC50.
Reply text: 35

Inquiry: Using the record for CC(C)=CCC/C(C)=C/COCC(=O)NC1C2CC3CC(C2)CC1C3 (configuration not stated) , report its IC50.
Reply text: 27
